- System: human GR (Homo sapiens, UniProt P04150)
- Sequence (P04150 1-777): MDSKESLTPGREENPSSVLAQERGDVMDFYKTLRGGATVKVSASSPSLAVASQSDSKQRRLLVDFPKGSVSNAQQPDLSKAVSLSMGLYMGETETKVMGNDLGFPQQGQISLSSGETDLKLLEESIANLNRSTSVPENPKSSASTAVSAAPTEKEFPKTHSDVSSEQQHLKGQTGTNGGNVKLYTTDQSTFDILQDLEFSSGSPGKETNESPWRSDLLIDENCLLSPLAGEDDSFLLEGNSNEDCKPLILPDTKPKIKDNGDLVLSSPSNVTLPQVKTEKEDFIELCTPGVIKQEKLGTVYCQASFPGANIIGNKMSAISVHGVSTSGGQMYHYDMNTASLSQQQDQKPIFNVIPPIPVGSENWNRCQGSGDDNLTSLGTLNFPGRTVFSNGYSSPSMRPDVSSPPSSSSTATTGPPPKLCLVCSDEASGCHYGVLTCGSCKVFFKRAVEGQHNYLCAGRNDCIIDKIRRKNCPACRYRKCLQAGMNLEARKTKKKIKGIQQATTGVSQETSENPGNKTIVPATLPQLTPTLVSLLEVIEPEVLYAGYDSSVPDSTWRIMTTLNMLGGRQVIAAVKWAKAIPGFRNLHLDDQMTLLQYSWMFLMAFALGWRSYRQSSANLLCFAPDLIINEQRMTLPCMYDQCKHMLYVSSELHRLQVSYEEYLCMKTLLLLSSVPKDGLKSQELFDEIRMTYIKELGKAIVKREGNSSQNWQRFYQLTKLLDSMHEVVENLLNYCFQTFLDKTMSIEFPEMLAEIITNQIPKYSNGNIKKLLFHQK
- Procedure Summary: Transrepression Assay (GITAR), TNFα-β-lactamase reporter in U937 cells
- Format: cell-based
- Design: U937 cells contain an endogenous glucocorticoid receptor (GR); endogenous in cells; host or cells: U937 cells stably transfected with the TNF-alpha promoter/beta-lactamase reporter
- Setup Conditions: U-937, U937 cells; maximum activity; read-out: Transrepression U937 Cells GITAR Emax
- Text: This assay assesses the ability of test compounds to control transcription from the TNFα-β-lactamase reporter gene in U937 cells, a human myelomonocytic leukemia cell line that naturally expresses the human GR. The assay measures compound dependent-repression of the TNFa promoter linked to a reporter gene. The human U937 cells that had been stablely transfected with the TNF-α promoter driving β-lactamase are used for this assay. U937 cells contain an endogenous glucocorticoid receptor (GR). […]
Quantity Kind: Emax (%)

a: C[C@]12Cc3cnn(-c4ccc(F)cc4)c3C=C1CC[C@@H]2CN(CCc1ccccn1)S(=O)(=O)Cc1ccncc1
b: C[C@]12Cc3cnn(-c4ccc(F)cc4)c3C=C1CC[C@@H]2CN(CC#N)S(=O)(=O)c1cc(Cl)c(Cl)s1
c: C[C@@H](O)CN(C[C@H]1CCC2=Cc3c(cnn3-c3ccc(F)cc3)C[C@@]21C)S(=O)(=O)Cc1ccccc1C(=O)O
Sort (3 compounds) by Emax: min first. // list labels; follow requested order
c, b, a
(c: 16.2%, b: 37.7%, a: 71.7%)

1: CCN(C[C@H]1CCC2=Cc3c(cnn3-c3ccc(F)cc3)C[C@@]21C)S(=O)(=O)c1c(C)noc1C
2: Cc1cc(S(=O)(=O)N(CC#N)C[C@H]2CCC3=Cc4c(cnn4-c4ccc(F)cc4)C[C@@]32C)c(C)cc1Cl
Of 1 and 2 , whose reported Emax is numerically smaller? Identify your selection by its label.
2

I: CC(C)CS(=O)(=O)N(CCc1ccccc1F)C[C@H]1CCC2=Cc3c(cnn3-c3ccc(F)cc3)C[C@@]21C
II: C[C@]12Cc3cnn(-c4ccc(F)cc4)c3C=C1CC[C@@H]2CN(CCc1ccccc1F)S(=O)(=O)CCN1C(=O)c2ccccc2C1=O
III: CC(=O)Nc1ccc(S(=O)(=O)N(CC2CC2)C[C@H]2CCC3=Cc4c(cnn4-c4ccc(F)cc4)C[C@@]32C)cc1
Could you please sort these 3 entries by Emax from high to low? // list labels; follow requested order
I, III, II

a: C[C@]12Cc3cnn(-c4ccc(F)cc4)c3C=C1CC[C@@H]2CN(CCc1ccccc1F)S(=O)(=O)Cc1ccc(Cl)cc1Cl
b: C[C@]12Cc3cnn(-c4ccc(F)cc4)c3C=C1CC[C@@H]2CN(CCc1ccccc1O)S(=O)(=O)Cc1cccnc1
Please state the entry with greater Emax among a and b . Identify your selection by its label.
a
(a: 88.8%, b: 60.3%)

The measured values listed here are drawn from patent US8299048B2.
